Values compiled from ChEMBL document CHEMBL5154749.

- assay-overview: Half life in Sprague-Dawley rat at 5 mg/kg, iv measured at 0.083 to 24 hrs by LC-MS/MS method
- Assay type: ADME, organism-based
- cond: in vivo, time 0.083-24 hrs
readout-name: half-life
Please make sure the unit comes right after the number.

Name the reported half-life value associated with the compound `C[C@@H]1COCCN1c1nc(-c2cccc3[nH]ccc23)nc2ccc(-c3ccnn3C)cc12` 1.37 h

====

- assay-overview: Tmax in Sprague-Dawley rat at 5 mg/kg, iv measured at 0.083 to 24 hrs by LC-MS/MS method
- Assay type: ADME, organism-based
- cond: in vivo, time 0.083-24 hrs
readout-name: Tmax (min)
One number for each entry, in min.

Name the reported Tmax value associated with the compound `C[C@@H]1COCCN1c1nc(-c2cccc3[nH]ccc23)nc2ccc(-c3ccnn3C)cc12` 4.8

====

- assay-overview: Half life in Sprague-Dawley rat at 10 mg/kg, po measured at 0.083 to 24 hrs by LC-MS/MS method
- Format: ADME, organism-based
- cond: in vivo, time 0.083-24 hrs
readout-name: half-life (h)
Give bare numbers, in h.

Name the reported half-life value associated with the molecule `C[C@@H]1COCCN1c1nc(-c2cccc3[nH]ccc23)nc2ccc(-c3ccnn3C)cc12` 1.14

====

- assay-overview: Cmax in Sprague-Dawley rat at 5 mg/kg, iv measured at 0.083 to 24 hrs by LC-MS/MS method
- Format: ADME, organism-based
- Design: dose 5 mg/kg, time 0.083-24 hrs, route iv
- cond: in vivo
readout-name: Cmax (ng/mL)
Answers are plain numbers, in ng/mL.

Name the reported Cmax value associated with the molecule `C[C@@H]1COCCN1c1nc(-c2cccc3[nH]ccc23)nc2ccc(-c3ccnn3C)cc12` 3400

====

- system-name: Serine/threonine-protein kinase ATR (Homo sapiens, UniProt Q13535)
- Sequence (Q13535 whole entry): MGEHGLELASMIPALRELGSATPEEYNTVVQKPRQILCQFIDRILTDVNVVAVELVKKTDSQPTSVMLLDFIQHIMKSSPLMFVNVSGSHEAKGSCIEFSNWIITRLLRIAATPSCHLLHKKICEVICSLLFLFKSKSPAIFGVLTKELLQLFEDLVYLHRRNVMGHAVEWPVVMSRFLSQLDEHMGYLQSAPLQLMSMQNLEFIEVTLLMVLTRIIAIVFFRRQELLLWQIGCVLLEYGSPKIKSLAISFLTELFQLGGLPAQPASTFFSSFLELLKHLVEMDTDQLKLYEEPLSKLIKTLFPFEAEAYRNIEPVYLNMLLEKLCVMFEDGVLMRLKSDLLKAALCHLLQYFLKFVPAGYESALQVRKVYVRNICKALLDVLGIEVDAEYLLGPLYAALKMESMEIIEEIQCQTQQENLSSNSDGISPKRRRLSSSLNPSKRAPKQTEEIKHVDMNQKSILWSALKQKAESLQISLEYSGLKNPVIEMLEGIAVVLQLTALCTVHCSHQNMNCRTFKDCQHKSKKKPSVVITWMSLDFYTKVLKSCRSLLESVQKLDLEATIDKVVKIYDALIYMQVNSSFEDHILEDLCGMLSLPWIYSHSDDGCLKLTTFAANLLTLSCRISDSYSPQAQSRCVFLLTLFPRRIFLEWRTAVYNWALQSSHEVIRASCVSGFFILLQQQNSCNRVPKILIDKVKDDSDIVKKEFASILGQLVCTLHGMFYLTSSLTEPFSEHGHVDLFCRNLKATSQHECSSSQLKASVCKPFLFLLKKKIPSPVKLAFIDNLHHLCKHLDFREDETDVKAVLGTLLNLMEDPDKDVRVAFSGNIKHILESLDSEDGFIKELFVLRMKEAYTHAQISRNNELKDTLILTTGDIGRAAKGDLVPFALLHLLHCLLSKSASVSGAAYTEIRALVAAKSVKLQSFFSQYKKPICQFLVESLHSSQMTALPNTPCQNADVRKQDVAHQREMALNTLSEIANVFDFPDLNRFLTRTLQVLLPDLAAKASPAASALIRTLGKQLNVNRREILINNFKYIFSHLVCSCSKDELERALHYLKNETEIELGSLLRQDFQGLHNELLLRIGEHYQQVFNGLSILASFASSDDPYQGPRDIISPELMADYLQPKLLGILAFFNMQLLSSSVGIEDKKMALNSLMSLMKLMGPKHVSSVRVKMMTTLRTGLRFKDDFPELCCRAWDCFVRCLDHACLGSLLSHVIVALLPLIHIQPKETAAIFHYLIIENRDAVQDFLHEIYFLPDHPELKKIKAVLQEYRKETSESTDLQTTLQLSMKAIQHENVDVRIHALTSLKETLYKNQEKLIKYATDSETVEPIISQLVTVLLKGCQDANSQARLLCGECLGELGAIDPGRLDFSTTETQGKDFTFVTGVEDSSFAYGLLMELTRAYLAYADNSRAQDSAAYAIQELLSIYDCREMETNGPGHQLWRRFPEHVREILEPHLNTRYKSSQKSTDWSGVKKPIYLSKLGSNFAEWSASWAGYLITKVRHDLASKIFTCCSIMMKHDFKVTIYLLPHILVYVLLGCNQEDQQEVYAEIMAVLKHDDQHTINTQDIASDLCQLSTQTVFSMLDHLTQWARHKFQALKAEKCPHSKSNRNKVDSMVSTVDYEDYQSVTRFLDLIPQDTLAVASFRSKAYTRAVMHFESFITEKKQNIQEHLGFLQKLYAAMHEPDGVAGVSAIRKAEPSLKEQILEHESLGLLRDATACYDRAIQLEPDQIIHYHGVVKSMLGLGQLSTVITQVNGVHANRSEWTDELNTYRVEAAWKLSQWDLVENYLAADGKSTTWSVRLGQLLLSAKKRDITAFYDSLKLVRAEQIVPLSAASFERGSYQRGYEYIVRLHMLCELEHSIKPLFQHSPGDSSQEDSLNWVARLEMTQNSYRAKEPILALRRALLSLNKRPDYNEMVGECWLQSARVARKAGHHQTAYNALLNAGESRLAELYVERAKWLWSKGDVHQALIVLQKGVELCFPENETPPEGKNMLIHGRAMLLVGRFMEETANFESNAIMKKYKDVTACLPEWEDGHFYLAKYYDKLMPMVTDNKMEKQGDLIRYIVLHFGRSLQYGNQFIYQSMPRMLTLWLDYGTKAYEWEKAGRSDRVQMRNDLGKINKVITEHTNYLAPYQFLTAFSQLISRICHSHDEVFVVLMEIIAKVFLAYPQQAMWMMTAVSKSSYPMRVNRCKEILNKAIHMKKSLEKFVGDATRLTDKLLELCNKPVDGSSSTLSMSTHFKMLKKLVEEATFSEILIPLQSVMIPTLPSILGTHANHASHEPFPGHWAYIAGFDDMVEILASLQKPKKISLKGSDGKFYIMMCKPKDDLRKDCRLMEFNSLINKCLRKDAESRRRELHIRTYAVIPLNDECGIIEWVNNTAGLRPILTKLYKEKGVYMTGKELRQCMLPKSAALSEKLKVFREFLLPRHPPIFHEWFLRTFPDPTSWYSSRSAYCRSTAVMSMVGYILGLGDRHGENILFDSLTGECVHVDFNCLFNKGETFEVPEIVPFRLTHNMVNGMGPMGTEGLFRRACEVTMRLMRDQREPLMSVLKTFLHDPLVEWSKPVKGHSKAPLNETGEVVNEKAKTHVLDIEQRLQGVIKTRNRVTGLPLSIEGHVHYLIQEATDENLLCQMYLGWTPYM
- assay-overview: Inhibition of human recombinant full length ATR using GST-cMyc-p53 as substrate incubated for 40 mins in presence of ATP by HTRF assay
readout-name: pIC50
Numbers only, as −log10 of the molar value.

Solved entries:
Cn1nccc1-c1ccc2nc(-c3cccc4[nH]ccc34)nc(N3CC4CC3CO4)c2c1 (stereo not drawn) = 6.22
Cn1nccc1-c1ccc2nc(-c3cccc4[nH]ccc34)nc(N3CC4CCC(C3)O4)c2c1 = 7.35
CCOC(c1ccc2nc(-c3cccc4[nH]ccc34)nc(N3CCOC[C@H]3C)c2c1)n1cccn1 (stereo partly drawn) = 6.05
C[C@@H]1COCCN1c1nc(-c2cccc3[nH]ccc23)nc2ccc(-c3ccc(=O)n(C)c3)cc12 = 6.71
C[C@@H]1COCCN1c1nc(-c2cccc3[nH]ccc23)nc2ccc(-c3cccn3C)cc12 = 6.54

For each of the items listed, what is its pIC50?
1. C[C@@H]1COCCN1c1nc(-c2c[nH]c3ncc(F)cc23)nc2ccc(-c3ccnn3C)cc12
2. C[C@@H]1COCCN1c1nc(-c2cccc3[nH]ccc23)nc2ccc(-c3ccsc3)cc12
3. C[C@@H]1COCCN1c1nc(-c2cc(F)cc3[nH]ccc23)nc2ccc(-c3ccnn3C)cc12
4. C[C@@H]1COCCN1c1nc(-c2cccc3[nH]ccc23)nc2ccc(-c3ccnn3C)cc12

5.45
5.55
7.02
7.89

====

- system-name: Serine/threonine-protein kinase ATR (Homo sapiens, UniProt Q13535)
- assay-overview: Inhibition of human recombinant full length ATR using GST-cMyc-p53 as substrate incubated for 40 mins in presence of ATP by HTRF assay
pIC50: −log10 of the molar value.
Consider the following compounds; for each one, report its pIC50.

Cn1nccc1-c1ccc2nc(-c3cccc4[nH]ccc34)nc(N3CCOCC3)c2c1 = 7.05
Cn1nccc1-c1ccc2nc(-c3cccc4[nH]ccc34)nc(N3CCC[C@H](N)C3)c2c1 = < 5.00
C[C@@H]1CNCCN1c1nc(-c2cccc3[nH]ccc23)nc2ccc(-c3ccnn3C)cc12 = < 5.00

For each of the items listed, what is its pIC50?
1. Cc1ccc2[nH]ncc2c1-c1nc(N2CCOC[C@H]2C)c2cc(-c3ccnn3C)ccc2n1
2. C[C@@H]1COCCN1c1nc(-c2cccc3[nH]ccc23)nc2ccc(-c3ccc(C#N)nc3)cc12
3. CCn1nccc1-c1ccc2nc(-c3cccc4[nH]ccc34)nc(N3CCOC[C@H]3C)c2c1

1. < 5.00
2. < 5.00
3. 7.74

====

- assay-overview: Volume of distribution at steady state in Sprague-Dawley rat at 5 mg/kg, iv measured at 0.083 to 24 hrs by LC-MS/MS method
- Type: ADME, organism-based
- cond: in vivo, time 0.083-24 hrs, read-out: Vdss
readout-name: Vd (L/kg)
Give bare numbers, in L/kg.

Name the reported Vd value associated with the molecule `C[C@@H]1COCCN1c1nc(-c2cccc3[nH]ccc23)nc2ccc(-c3ccnn3C)cc12` 2.03

====

- assay-overview: Cmax in Sprague-Dawley rat at 10 mg/kg, po measured at 0.083 to 24 hrs by LC-MS/MS method
- Assay type: ADME, organism-based
- Parameters: time 0.083-24 hrs, dose 10 mg/kg, route po
- cond: in vivo
readout-name: Cmax (ng/mL)
Give bare numbers, in ng/mL.

Name the reported Cmax value associated with the compound `C[C@@H]1COCCN1c1nc(-c2cccc3[nH]ccc23)nc2ccc(-c3ccnn3C)cc12` 895

====

Consider the following compounds; for each one, report its pIC50.
- system-name: Serine/threonine-protein kinase ATR (Homo sapiens)
- assay-overview: Inhibition of human recombinant full length ATR using GST-cMyc-p53 as substrate incubated for 40 mins in presence of ATP by HTRF assay
One number for each entry, as −log10 of the molar value.

C[C@@H]1COCCN1c1nc(-c2c[nH]c3ncccc23)nc2ccc(-c3ccnn3C)cc12 = 5.48
C[C@@H]1COCCN1c1nc(-c2cccc3[nH]ccc23)nc2ccc(-c3ccnn3C3CCCCO3)cc12 (stereo partly drawn) = 6.36
C[C@@H]1COCCN1c1nc(-c2cccc3[nH]ccc23)nc2ccc(-c3ccncc3)cc12 = 6.56

For each of the items listed, what is its pIC50?
1. Cc1noc(C)c1-c1ccc2nc(-c3cccc4[nH]ccc34)nc(N3CCOC[C@H]3C)c2c1
2. Cn1nccc1-c1ccc2nc(-c3cccc4[nH]ccc34)nc(N3C4CCC3COC4)c2c1
3. C[C@@H]1COCCN1c1nc(-c2cccc3[nH]ccc23)nc2ccc(-c3ccc(N4CCOCC4)nc3)cc12
4. Cc1ncc(-c2ccc3nc(-c4cccc5[nH]ccc45)nc(N4CCOC[C@H]4C)c3c2)s1
5. C[C@H]1COCCN1c1nc(-c2cccc3[nH]ccc23)nc2ccc(-c3ccnn3C)cc12

7.49
7.60
6.24
5.61
6.15

For each of the items listed, what is its pIC50?
1. C[C@@H]1COCCN1c1nc(-c2cnc3[nH]ccc3c2)nc2ccc(-c3ccnn3C)cc12
2. CC(C)n1nccc1-c1ccc2nc(-c3cccc4[nH]ccc34)nc(N3CCOC[C@H]3C)c2c1
3. C[C@@H]1COCCN1c1nc(-c2cccc3[nH]ccc23)nc2ccc(-c3ccoc3)cc12
4. C[C@@H]1COCCN1c1nc(-c2cccc3[nH]ccc23)nc2ccc(-c3ccccc3)cc12

1: 5.75; 2: 7.08; 3: 5.63; 4: 5.53

====

Consider the following compounds; for each one, report its IC50.
- system-name: Serine/threonine-protein kinase ATR (Homo sapiens, UniProt Q13535)
- assay-overview: Inhibition of human recombinant full length ATR using GST-cMyc-p53 as substrate incubated for 40 mins in presence of ATP by HTRF assay
One number for each entry, in µM.

C[C@@H]1COCCN1c1nc(-c2cccc3[nH]ccc23)nc2ccc(-c3cnn(C)c3)cc12 = 0.7
C[C@@H]1COCCN1c1nc(-c2c[nH]c3ccccc23)nc2ccc(-c3ccnn3C)cc12 = 0.215
C[C@@H]1COCCN1c1nc(-c2ccnc3[nH]ccc23)nc2ccc(-c3ccnn3C)cc12 = 0.115
C[C@@H]1COCCN1c1nc(-c2cccc3[nH]ccc23)nc2ccc(-c3cccnc3)cc12 = 0.183

Name the reported IC50 value associated with the compound `C[C@@H]1COCCN1c1nc(-c2cccc3[nH]ccc23)nc2ccc(-c3cncn3C)cc12` 0.033
